- ASSAYED SYSTEM: pHGFR (Homo sapiens, UniProt P08581)
- Construct: The cDNA corresponding to residues 1051-1349 of the HGFR kinase catalytic domain (HGFRkd) was cloned into a pFastBac plasmid; added N-terminal methionine (start codon of the NcoI site) (N); then autophosphorylated in vitro with MgATP
- Sequence (P08581 1051-1349): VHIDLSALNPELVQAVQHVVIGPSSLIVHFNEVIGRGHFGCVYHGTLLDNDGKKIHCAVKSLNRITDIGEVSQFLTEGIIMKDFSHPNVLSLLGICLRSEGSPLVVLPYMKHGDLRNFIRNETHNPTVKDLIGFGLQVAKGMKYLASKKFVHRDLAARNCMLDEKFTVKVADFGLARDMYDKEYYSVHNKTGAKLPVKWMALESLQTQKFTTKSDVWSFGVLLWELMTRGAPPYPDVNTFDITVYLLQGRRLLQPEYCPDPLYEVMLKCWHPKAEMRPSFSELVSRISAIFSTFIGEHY
- MEASUREMENT PROTOCOL: Radioactive glass fiber filterplate assay (32P transfer to dephosphorylated α-casein)
- CONDITION DESCRIPTION: radioactive filterplate format; 27.5 nM pHGFR, 0.075 mM ATP, RT, 30 min; read-out: inhibition (pHGFR/radioactive format)
MEASUREMENT TYPE: Ki (µM)
Answer in µM, number only, no unit symbol.

Documented Ki of `O=C1Nc2ccc3ncsc3c2/C1=C/Nc1ccc(S(=O)(=O)NCCOCCO)cc1` : 0.128
